Data export: IC50 values recorded with RIPK1 (Homo sapiens (Human)).
Sequence (Q13546 whole entry): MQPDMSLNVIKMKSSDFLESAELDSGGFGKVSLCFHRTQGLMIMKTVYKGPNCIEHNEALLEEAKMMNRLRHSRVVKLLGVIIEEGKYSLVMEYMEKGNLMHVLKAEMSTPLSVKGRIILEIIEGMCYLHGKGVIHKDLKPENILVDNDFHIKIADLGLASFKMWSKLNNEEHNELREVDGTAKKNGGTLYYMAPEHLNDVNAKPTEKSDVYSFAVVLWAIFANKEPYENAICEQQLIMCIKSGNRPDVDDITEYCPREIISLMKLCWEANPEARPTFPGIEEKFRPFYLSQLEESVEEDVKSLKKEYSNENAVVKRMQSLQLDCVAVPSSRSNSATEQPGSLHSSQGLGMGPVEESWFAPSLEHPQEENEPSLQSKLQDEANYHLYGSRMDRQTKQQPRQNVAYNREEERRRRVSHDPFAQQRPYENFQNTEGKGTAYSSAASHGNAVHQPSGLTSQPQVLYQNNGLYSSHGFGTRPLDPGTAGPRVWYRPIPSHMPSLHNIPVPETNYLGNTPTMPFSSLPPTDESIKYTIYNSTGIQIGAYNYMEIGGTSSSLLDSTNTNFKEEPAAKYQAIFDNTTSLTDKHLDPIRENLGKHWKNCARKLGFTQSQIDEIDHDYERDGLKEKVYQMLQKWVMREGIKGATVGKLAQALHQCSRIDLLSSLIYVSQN
measured-quantity: IC50

>>> reported_result("CCCCn1cc(C(=O)NCc2cc(F)ccc2F)c2cc(-c3ccc4nc(NC(=O)C5CC5)sc4c3)ccc21")
"100 to 1000 nM"
>>> reported_result("C[C@@H](NC(=O)c1c[nH]c2ccc(-c3ccc4nc(NC(=O)C5CC5)sc4c3)cc12)c1ccc(F)cc1")
"100 to 1000 nM"
>>> reported_result("Cc1ccc([C@H](C)NC(=O)c2cn(C)c3ccc(-c4ccn5nc(NC(=O)C6CC6)nc5c4)cc23)cc1")
"1 to 10 nM"
>>> reported_result("C[C@H](NC(=O)c1c[nH]c2ccc(-c3ccc(NC(=O)C4CC4)cc3)cc12)c1cccc(F)c1")
"100 to 1000 nM"
>>> reported_result("C[C@H](NC(=O)c1cn(C)c2ccc(-c3ccn4nc(NC(=O)N5CCC[C@H]5CO)nc4c3)cc12)c1cccc(F)c1")
"100 to 1000 nM"
>>> reported_result("O=C(NCc1ccc(N2CCOCC2)cc1)c1c[nH]c2ccc(-c3ccn4nc(NC(=O)C5CC5)nc4c3)cc12")
"≥ 1000 nM"
>>> reported_result("C[C@H](NC(=O)c1cn(C)c2ccc(-c3ccc4c(C(=O)NC5CC5)c[nH]c4c3)cc12)c1cccc(F)c1")
"10 to 100 nM"
>>> reported_result("CCCn1cc(C(=O)N[C@@H](C)c2cccc(F)c2)c2cc(-c3ccc4c(NC(=O)C5CC5)n[nH]c4c3)ccc21")
"1 to 10 nM"
>>> reported_result("O=C(NCc1ccc(F)cc1F)c1c[nH]c2ncc(-c3ccc4nc(NC(=O)C5CC5)sc4c3)cc12")
"100 to 1000 nM"
>>> reported_result("CCn1cc(C(=O)N2CCC[C@H]2c2ccc(F)cc2)c2cc(-c3ccn4nc(NC(=O)[C@@H](C)O)nc4c3)ccc21")
"10 to 100 nM"
>>> reported_result("CCCCn1cc(C(=O)N[C@@H](C)c2cccc(F)c2)c2cc(-c3ccn4nc(NC(=O)C5CC5)nc4c3)ccc21")
"10 to 100 nM"
>>> reported_result("CCn1cc(C(=O)N[C@@H](CF)c2ccc(F)cc2)c2cc(-c3ccn4nc(NC(=O)C5CC5)nc4c3)ccc21")
"1 to 10 nM"
>>> reported_result("CC(C)c1ccc(CNC(=O)c2c[nH]c3ccc(-c4ccc5nc(NC(=O)C6CC6)sc5c4)cc23)cc1")
"100 to 1000 nM"
>>> reported_result("C[C@H](NC(=O)c1cn(C)c2ncc(-c3ccn4nc(NC(=O)C5CC5)nc4c3)cc12)c1cccc(F)c1")
"100 to 1000 nM"
>>> reported_result("C[C@H](NC(=O)c1cn(C)c2ccc(-c3ccc4nc(NC(=O)C5CC5)sc4n3)cc12)c1cccc(F)c1")
"10 to 100 nM"
>>> reported_result("CC(C)C(=O)Nc1nc2cc(-c3ccc4c(c3)c(C(=O)NC(C)(C)c3ccccc3)cn4C)ccn2n1")
"10 to 100 nM"
>>> reported_result("CC(C)(C)c1ccc(CNC(=O)c2c[nH]c3ccc(-c4ccc5nc(NC(=O)C6CC6)sc5c4)cc23)cc1")
"100 to 1000 nM"
>>> reported_result("C[C@H](NC(=O)c1c[nH]c2ccc(-c3ccc4nc(NC(=O)C(F)(F)F)sc4c3)cc12)c1cccc(F)c1")
"100 to 1000 nM"
>>> reported_result("CCn1cc(C(=O)N2CCC[C@H]2c2ccc(F)cc2)c2cc(-c3ccn4nc(NC(=O)C5CC5)nc4c3)cnc21")
"1 to 10 nM"
>>> reported_result("CCn1cc(C(=O)N2CCC[C@H]2c2ccc(F)cc2)c2cc(-c3ccn4nc(NC(=O)CN(C)C)nc4c3)ccc21")
"10 to 100 nM"
>>> reported_result("O=C(NCc1cccc([N+](=O)[O-])c1)c1c[nH]c2ccc(-c3ccc4nc(NC(=O)C5CC5)sc4c3)cc12")
"100 to 1000 nM"
>>> reported_result("C[C@H](NC(=O)c1cn(C)c2ccc(-c3ccn4nc(NC(=O)N5CCNCC5)nc4c3)cc12)c1cccc(F)c1")
"1 to 10 nM"
>>> reported_result("C[C@H](NC(=O)c1c[nH]c2ncc(-c3ccc(N4CCOCC4)cc3)cc12)c1cccc(F)c1")
"100 to 1000 nM"
>>> reported_result("O=C(NCc1ccc(F)cc1F)c1c[nH]c2ccc(-c3ccc4nc(NC(=O)C5CC5)sc4c3)cc12")
"10 to 100 nM"
>>> reported_result("CCn1cc(C(=O)N[C@H](c2ccc(F)cc2)C2CC2)c2cc(-c3ccn4nc(NC5CC5)nc4c3)ccc21")
"≥ 1000 nM"
>>> reported_result("COc1ccc(CNC(=O)c2c[nH]c3ncc(-c4ccc5nc(NC(=O)C6CC6)sc5c4)cc23)cc1OC")
"100 to 1000 nM"
>>> reported_result("CC(C)n1cc(C(=O)N[C@@H](C)c2cccc(F)c2)c2cc(-c3ccn4nc(NC(=O)C5CC5)nc4c3)ccc21")
"10 to 100 nM"
>>> reported_result("COCC(=O)Nc1nc2ccc(-c3ccc4[nH]cc(C(=O)N[C@@H](C)c5cccc(F)c5)c4c3)cn2n1")
"100 to 1000 nM"
